System: SGC-7901
Assay: Cytotoxicity against Homo sapiens (human) SGC7901 cells by MTT assay
Format: functional, cell-based
Entries and their log10 IC50 values follow.
measureName: log10 IC50 (log10 of the value in µM)

{"lineNotation": "O=c1[nH]cc(F)c(=O)[nH]1", "log10 IC50": 0.34}
{"lineNotation": "O=c1cc(-c2ccccc2)oc2cc(OCCNCCO)cc(O)c12", "log10 IC50": 0.70}
{"lineNotation": "O=c1cc(-c2ccccc2)oc2cc(OCCN3CCOCC3)cc(O)c12", "log10 IC50": 1.63}
{"lineNotation": "O=c1cc(-c2ccccc2)oc2cc(OCCN(CCO)CCO)cc(O)c12", "log10 IC50": 1.77}
{"lineNotation": "CNCCOc1cc(O)c2c(=O)cc(-c3ccccc3)oc2c1", "log10 IC50": 0.68}
{"lineNotation": "CCCCNCCOc1cc(O)c2c(=O)cc(-c3ccccc3)oc2c1", "log10 IC50": 0.27}
{"lineNotation": "Cc1nccn1CCOc1cc(O)c2c(=O)cc(-c3ccccc3)oc2c1", "log10 IC50": 0.89}
{"lineNotation": "CC(C)(C)NCCOc1cc(O)c2c(=O)cc(-c3ccccc3)oc2c1", "log10 IC50": 0.50}
{"lineNotation": "CCN(CC)CCOc1cc(O)c2c(=O)cc(-c3ccccc3)oc2c1", "log10 IC50": 1.14}
{"lineNotation": "CN1CCN(CCOc2cc(O)c3c(=O)cc(-c4ccccc4)oc3c2)CC1", "log10 IC50": 1.75}

These measurements were taken from ChEMBL document CHEMBL3045913.
